Test system: giant foxtail
Test: Test B pre/postemergence giant foxtail
Type: in vivo, Setaria faberii
Details: Preemergence, Rate 125 g/ha; scale of 0 to 10 where 0 is no effect and 10 is complete control
ASSAY METRIC: Plant response rating, Giant foxtail

1. CC(C)N(C(=O)n1oc(=O)n(CC(=O)N(C)C)c1=O)c1ccc(Cl)cc1 : 6
2. CC(C)N(C(=O)n1oc(=O)n(CCCCl)c1=O)c1ccc(Cl)cc1 : 10
3. CC(C)N(C(=O)n1oc(=O)n(CC(F)F)c1=O)c1ccc(F)cc1 : 10
4. CC(C)N(C(=O)n1oc(=O)n(CCBr)c1=O)c1ccccc1 : 10
5. COC(=O)C(c1ccccc1)n1c(=O)on(C(=O)N(c2ccc(Cl)cc2)C(C)C)c1=O (stereo not shown) : 0
6. Cc1nc(C)c(C(C)n2c(=O)on(C(=O)N(c3ccccc3)C(C)C)c2=O)s1 (stereo not shown) : 0
7. CC(C)N(C(=O)n1oc(=O)n(CCCl)c1=O)c1ccccc1 : 10
